B1: HDV Ribozyme (parent)
chain: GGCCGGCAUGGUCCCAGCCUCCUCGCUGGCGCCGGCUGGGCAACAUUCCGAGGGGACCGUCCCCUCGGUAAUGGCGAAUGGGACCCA

Variants of: B1
Assay: self-cleavage, relative activity (ratio to wild type); higher = more cleavage; co-transcriptional
parameter: self-cleavage

INSERT INTO assay_data (seq_text, value_reported) VALUES
  ('GGCCGGCAUGGUCCCAGCCUCCUCGCUGGCGCCGGCUGGGCAACAUUCCGAGGGGACCGUCCCCUCGGUAAUGGCACAUGGGACCCA [G76A A77C]', 0.657),
  ('GGCCGGCACGGUCCCAGCCUCCUCGCUGGCGCCGGCUGGGCAACAUUCCGAGGGGAUCGUCCCCUCGGUAAUGGCGAAUGGGACCCA [U9C C57U]', 0.95),
  ('GGCCGGCAUGGUCCCAGCCUCCUCGCUUGCGCCGGCUGGACAACAUUCCGAGGGGACCGUCCCCUCGGUAAUGGCGAAUGGGACCCA [G28U G40A]', 0.104),
  ('GGCCGGCAUGGUCCCAGCCUCCUCGCUGGCGCCGGCUGGGCAACUUUCCGAGGGGACCGUCCCCUCGGUAAUAGCGAAUGGGACCCA [A45U G73A]', 0.616),
  ('GGCCGGAAUGGUCCCAGCCUCCUCGCUGGCGCCGGCUGGGCAACAUUCCGAGGGGACCGUCCCCUAGGUAAUGGCGAAUGGGACCCA [C7A C66A]', 0.539);

Data provenance is the RNAGym collection of RNA variant scans (doi:10.7554/elife.80360).
